Biological target: UniProtKB Q12809
Sequence (Q12809 whole entry): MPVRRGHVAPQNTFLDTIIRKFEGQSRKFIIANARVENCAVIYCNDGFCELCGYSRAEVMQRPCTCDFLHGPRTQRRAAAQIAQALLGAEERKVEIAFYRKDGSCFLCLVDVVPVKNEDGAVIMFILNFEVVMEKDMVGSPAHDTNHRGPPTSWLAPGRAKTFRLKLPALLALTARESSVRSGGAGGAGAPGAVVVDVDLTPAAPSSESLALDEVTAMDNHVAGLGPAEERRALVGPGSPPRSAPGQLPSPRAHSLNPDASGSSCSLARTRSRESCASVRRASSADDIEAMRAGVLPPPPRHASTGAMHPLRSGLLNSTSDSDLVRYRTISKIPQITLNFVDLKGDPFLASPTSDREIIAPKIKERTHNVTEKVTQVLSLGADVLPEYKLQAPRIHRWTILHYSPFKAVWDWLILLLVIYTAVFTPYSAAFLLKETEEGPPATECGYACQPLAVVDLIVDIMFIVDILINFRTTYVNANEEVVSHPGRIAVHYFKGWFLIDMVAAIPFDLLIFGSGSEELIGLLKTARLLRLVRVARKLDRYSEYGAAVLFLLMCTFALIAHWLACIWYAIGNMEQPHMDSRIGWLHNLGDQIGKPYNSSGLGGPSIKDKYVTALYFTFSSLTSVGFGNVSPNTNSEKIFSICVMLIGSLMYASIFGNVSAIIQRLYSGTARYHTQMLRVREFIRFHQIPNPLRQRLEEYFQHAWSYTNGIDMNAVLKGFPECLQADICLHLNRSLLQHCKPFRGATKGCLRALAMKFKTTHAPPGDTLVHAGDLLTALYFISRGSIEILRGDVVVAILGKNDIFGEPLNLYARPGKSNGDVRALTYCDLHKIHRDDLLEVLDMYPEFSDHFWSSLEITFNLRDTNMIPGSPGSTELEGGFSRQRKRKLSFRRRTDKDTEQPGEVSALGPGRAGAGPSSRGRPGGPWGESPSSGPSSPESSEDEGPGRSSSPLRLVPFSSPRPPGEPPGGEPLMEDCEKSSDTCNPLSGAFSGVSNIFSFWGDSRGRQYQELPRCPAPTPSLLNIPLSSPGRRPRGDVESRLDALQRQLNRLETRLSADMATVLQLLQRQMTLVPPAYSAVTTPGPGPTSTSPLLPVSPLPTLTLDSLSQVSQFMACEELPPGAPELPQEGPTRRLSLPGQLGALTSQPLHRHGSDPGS
pIC50: −log10 of the molar value.
Criterion: pIC50 meeting or surpassing 8. Met: yes (1). Not met: no (0).

These recorded examples may help you get a feel for the data.
Assess whether reported pIC50 for `CC(C)(Cc1ccc2ccccc2c1)NC[C@@H](O)COc1ccccc1C#N` sits at 8 or higher.
yes (1)

Is pIC50 for `CC(C)(Cc1ccc2ccccc2c1)NC[C@@H](O)COc1ccc(CCC(=O)O)cc1` at or above 8?
no (0)

Could you please find out whether `CC(C)(Cc1ccc2ccccc2c1)NC[C@@H](O)COc1ccc(CCC(=O)O)cc1C#N` has pIC50 that meets 8 or exceeds it?
no (0)

Switching to the query record.
Identify whether the reported pIC50 of the following compound is 8 or greater: `CC(C)(Cc1ccc2ccccc2c1)NC[C@@H](O)COc1cccc(Cl)c1C#N`
yes (1)
